Origin of measurements: patent US20230286973A1

assay protocol: Liver Microsome Stability Assay (rat)
setup conditions: rat liver microsomes, with NADPH, 1.0 uM compound
For each entry below, report its Liver Microsome Stability (Multiple Species): Rat - % Remaining after 30 min w/NADPH value.
Give bare numbers, in %.

- molecule: "CC(=O)N1CCCCC1c1ccc(N2CCC[C@@H]2c2csc(NC(=O)c3cccn3Cc3ccncc3)n2)cc1 (some centres unmarked) [Compound A58]"
  recorded number: 4.13
- molecule: "O=C(Nc1nc([C@H]2CCCN2c2ccccc2)cs1)c1cccn1Cc1ccnnc1 [Compound C102]"
  recorded number: 2.73
- molecule: "O=C(Nc1ccccn1)c1csc(NC(=O)c2cccn2Cc2ccncc2)n1 [Compound E53]"
  recorded number: 5.58

Take each entry in turn and give its Liver Microsome Stability (Multiple Species): Rat - % Remaining after 30 min w/NADPH.
1. O=C(Nc1ccc(N2CCC[C@@H]2c2csc(NC(=O)c3cccn3Cc3ccnc(F)c3)n2)cc1)O[C@H]1CCOC1 [Compound A174]
2. O=C(Nc1nc([C@H]2CCCN2c2ccc(OC3COC3)cc2)cs1)c1cccn1Cc1ccncc1 [Compound A2]

Data returned:
1. 42.5
2. 7.5
